Protocol description: Cytotoxicity against African green monkey Vero cells assessed as reduction in cell viability measured after 24 hrs
Assay type: toxicity, cell-based
Stated conditions: African green monkey (Chlorocebus sabaeus)
Assignment: determine reported IC50 at 24 h for the given molecules.

Here are 2 molecules together with their reported answers.
OB1OCc2ccc(OCc3cn(CCN4CCN(c5ccnc6cc(Cl)ccc56)CC4)nn3)cc21; 82.4 µM
OB1OCc2ccc(OCc3cn(CCNc4ccnc5cc(Cl)ccc45)nn3)cc21; > 100 µM

I'd like to know its IC50 at 24 h. The molecule in question is OB1OCc2ccc(OCc3cn(CCCNc4ccnc5cc(Cl)ccc45)nn3)cc21
> 100 µM
